- Assayed system: Recombinant human factor D (Homo sapiens (Human), UniProt P00746)
- Sequence (P00746 26-253): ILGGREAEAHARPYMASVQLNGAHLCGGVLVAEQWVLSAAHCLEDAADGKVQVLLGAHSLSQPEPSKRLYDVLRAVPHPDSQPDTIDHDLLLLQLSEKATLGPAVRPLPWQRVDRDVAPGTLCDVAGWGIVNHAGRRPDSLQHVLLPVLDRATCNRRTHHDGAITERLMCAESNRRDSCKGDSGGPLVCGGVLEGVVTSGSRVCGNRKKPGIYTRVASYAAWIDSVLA
- Method notes: biochemical
- Assay type: biochemical
- Applied conditions: Factor D inhibition data using Method 1; substrate Z-Lys-thiobenzyl, fluorescence readout; read-out: IC50
pIC50: −log10 of the molar value.
Everything with pIC50 lower than 6 is class 0; everything else, including exactly 6, is class 1.

>>> class_name("CC[C@H]1CCC[C@@H](NC(=O)[C@@H]2C[C@H]3C[C@H]3N2C(=O)Nc2cn(C(N)=O)c3ccccc23)C1 [Example 23]")
"class 1"
>>> class_name("CC[C@@H]1CCC[C@H](NC(=O)[C@@H]2C[C@H]3C[C@H]3N2C(=O)Cn2nc(C(N)=O)c3ccncc32)C1 [Example 72]")
"class 0"
>>> class_name("CC(=O)c1nn(CC(=O)N2[C@@H]3C[C@@H]3C[C@H]2C(=O)N[C@@H]2CCC[C@H](C(F)(F)F)C2)c2ccc(OCc3ncccn3)cc12 [Example 95]")
"class 1"
>>> class_name("CO[C@H]1CCC[C@@H](NC(=O)[C@@H]2C[C@H]3C[C@H]3N2C(=O)Cn2nc(C(N)=O)c3ccccc32)C1 [Example 46]")
"class 1"
>>> class_name("CC1(C)CCC[C@@H](NC(=O)[C@@H]2C[C@H]3C[C@H]3N2C(=O)Cn2nc(C(N)=O)c3ccccc32)C1 [Example 54]")
"class 1"
>>> class_name("CC1(C)CCC[C@@H](NC(=O)[C@@H]2C[C@@H](F)CN2C(=O)Nc2cn(C(N)=O)c3ccccc23)C1 [Example 27]")
"class 1"
>>> class_name("CC1(C)CCC[C@@H](NC(=O)[C@@H]2C[C@H]3C[C@H]3N2C(=O)Cn2nc(C(N)=O)c3ccc(F)cc32)C1 [Example 60]")
"class 1"
>>> class_name("CO[C@H]1CCC[C@@H](NC(=O)[C@@H]2C[C@H]3C[C@H]3N2C(=O)Nc2cn(C(N)=O)c3ccccc23)C1 [Example 21]")
"class 1"
>>> class_name("CC1(C)CCC[C@@H](NC(=O)[C@@H]2C[C@H]3C[C@H]3N2C(=O)Nc2cn(C(N)=O)c3ccccc23)C1 [Example 22]")
"class 1"
>>> class_name("CO[C@H]1[C@@H](C(=O)N[C@@H]2CCCC(C)(C)C2)N(C(=O)Cn2nc(C(N)=O)c3ccccc32)C[C@@H]1F [Example 84]")
"class 1"
>>> class_name("CC1(C)CCC[C@H](NC(=O)[C@@H]2C[C@H]3C[C@H]3N2C(=O)Cn2nc(C(N)=O)c3ccncc32)C1 [Example 55]")
"class 0"
>>> class_name("C[C@H]1CCC[C@@H](NC(=O)[C@@H]2C[C@H]3C[C@H]3N2C(=O)Cn2nc(C(N)=O)c3ccncc32)C1 [Example 51]")
"class 1"
